- SYSTEM: DNMT1 (Homo sapiens)
- Construct: purchased Reaction Biology Corporation (contract screening service)
- Sequence (P26358 whole entry): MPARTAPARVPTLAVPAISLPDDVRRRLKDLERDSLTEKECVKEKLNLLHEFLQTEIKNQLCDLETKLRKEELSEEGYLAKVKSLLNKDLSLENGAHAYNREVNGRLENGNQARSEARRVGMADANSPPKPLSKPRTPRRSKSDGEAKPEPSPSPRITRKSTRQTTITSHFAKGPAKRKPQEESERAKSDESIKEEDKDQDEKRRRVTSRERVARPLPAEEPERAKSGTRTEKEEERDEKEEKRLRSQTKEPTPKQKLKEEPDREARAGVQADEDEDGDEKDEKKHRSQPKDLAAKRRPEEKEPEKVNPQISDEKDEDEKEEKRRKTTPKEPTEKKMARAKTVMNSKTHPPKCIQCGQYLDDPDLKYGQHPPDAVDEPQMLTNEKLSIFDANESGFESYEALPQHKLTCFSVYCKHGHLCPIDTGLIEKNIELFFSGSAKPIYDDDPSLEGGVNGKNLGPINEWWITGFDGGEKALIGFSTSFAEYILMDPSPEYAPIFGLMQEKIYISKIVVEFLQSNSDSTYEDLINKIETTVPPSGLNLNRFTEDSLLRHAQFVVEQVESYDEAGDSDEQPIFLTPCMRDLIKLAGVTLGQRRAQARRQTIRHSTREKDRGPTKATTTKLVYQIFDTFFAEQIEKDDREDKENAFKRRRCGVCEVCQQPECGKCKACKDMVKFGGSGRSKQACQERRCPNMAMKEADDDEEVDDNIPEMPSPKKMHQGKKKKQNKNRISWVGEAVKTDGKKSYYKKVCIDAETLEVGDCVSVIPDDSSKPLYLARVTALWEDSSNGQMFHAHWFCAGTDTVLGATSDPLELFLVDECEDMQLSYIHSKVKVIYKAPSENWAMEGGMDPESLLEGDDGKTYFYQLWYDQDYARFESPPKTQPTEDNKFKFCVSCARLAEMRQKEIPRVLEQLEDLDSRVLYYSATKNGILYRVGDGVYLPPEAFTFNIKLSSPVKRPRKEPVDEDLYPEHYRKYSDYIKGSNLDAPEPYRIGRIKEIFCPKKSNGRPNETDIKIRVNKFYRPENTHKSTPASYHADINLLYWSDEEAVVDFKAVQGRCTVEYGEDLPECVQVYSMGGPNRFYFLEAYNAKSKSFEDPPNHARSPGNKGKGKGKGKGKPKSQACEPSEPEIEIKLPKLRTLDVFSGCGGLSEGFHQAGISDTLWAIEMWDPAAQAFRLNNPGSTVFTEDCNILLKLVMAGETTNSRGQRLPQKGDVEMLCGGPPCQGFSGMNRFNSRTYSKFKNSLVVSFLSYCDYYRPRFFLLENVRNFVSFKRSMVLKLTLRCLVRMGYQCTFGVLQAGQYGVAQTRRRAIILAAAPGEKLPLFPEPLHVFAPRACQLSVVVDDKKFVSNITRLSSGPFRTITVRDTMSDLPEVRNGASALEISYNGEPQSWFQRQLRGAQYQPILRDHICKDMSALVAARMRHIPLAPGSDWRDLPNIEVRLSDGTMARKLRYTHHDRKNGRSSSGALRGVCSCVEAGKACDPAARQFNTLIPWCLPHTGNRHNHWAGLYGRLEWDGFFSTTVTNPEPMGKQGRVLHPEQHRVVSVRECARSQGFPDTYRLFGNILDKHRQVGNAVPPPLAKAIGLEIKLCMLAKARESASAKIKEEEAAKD
- METHOD: HotSpot radioisotope methyltransferase assay, DNMT1 (Poly dI-dC substrate)
- Format: biochemical
- RUN_CONDITIONS: 100 μM compound; Table 3; read-out: % Inhibition (DNMT1)
ATTRIBUTE_MEASURED: inhibition at 100 µM (%)

Example molecules with recorded inhibition at 100 µM:
1) Cc1cc(NCc2nnc(Cc3ccccc3)o2)ccc1C(N)=O [CSC027694519]; 64.6
2) CC(C)(CC(=O)Nc1cccc(Cn2cccn2)c1)C(=O)O [CSC027796832]; -7.25
3) O=C(O)c1ccc(NS(=O)(=O)c2ccc(N3CCCC3=O)cc2)cc1 [CSC027083851]; -5.71
4) O=c1c(O)cc([C@H]2Oc3cc(O)cc(O)c3C[C@H]2O)cc2c([C@H]3Oc4cc(O)cc(O)c4C[C@H]3O)cc(O)c(O)c12 [Theaflavin]; 65.4
5) Cc1cc(NC(=O)CN2CCN(c3cc(C(N)=O)c4ccccc4n3)CC2)no1 [CSC027480404]; 30
6) COc1ccc(Cl)cc1C(=O)NCCc1ccc(S(=O)(=O)NC(=O)NC2CCCCC2)cc1 [Glyburide, reference compound]; 60
7) Cc1ccc(Cl)cc1NS(=O)(=O)c1ccc(NS(=O)(=O)c2ccc3ccccc3c2)cc1 [compound 7936171]; 62.3

I = Cc1ccnc2nc(C(=O)Nc3nc(-c4ccc5c(c4)OCO5)cs3)nn12 [CSC026286840]
II = Cc1[nH]c2ccccc2c1CCNCc1ccc(/C=C/C(=O)NO)cc1 [Panobinostat, reference compound]
III = COc1ccc(S(=O)(=O)Nc2c(C)n(C)n(-c3ccccc3)c2=O)cc1C(=O)O [compound 6631802]
IN: Ascending by inhibition at 100 µM, please: list the molecules accordingly. Note for the reader: the ranking is given by listing the labels in the order requested.
OUT: III, I, II

* * *

- SYSTEM: DNMT3B (Homo sapiens)
- Construct: purchased Reaction Biology Corporation (contract screening service)
- METHOD: HotSpot radioisotope methyltransferase assay, DNMT3B (Lambda DNA substrate)
- Type: biochemical
- RUN_CONDITIONS: 100 μM compound; mean of two measurements ± SD; 1 μM SAM
ATTRIBUTE_MEASURED: relative enzymatic activity of DNMT3B

Example compounds with recorded relative enzymatic activity of DNMT3B:
1) O=C(O)c1ccc(NS(=O)(=O)c2ccc(N3CCCC3=O)cc2)cc1; 97.85 (±5.66) %
2) CC(C)(CC(=O)Nc1cccc(Cn2cccn2)c1)C(=O)O; 95.28 (±0.47) %
3) COc1ccc(S(=O)(=O)Nc2c(C)n(C)n(-c3ccccc3)c2=O)cc1C(=O)O; 93.54 (±0.54) %
4) Cc1ccnc2nc(C(=O)Nc3nc(-c4ccc5c(c4)OCO5)cs3)nn12; 90.59 (±2.49) %

IN: Quick one: relative enzymatic activity of DNMT3B of O=c1c(O)cc([C@H]2Oc3cc(O)cc(O)c3C[C@H]2O)cc2c([C@H]3Oc4cc(O)cc(O)c4C[C@H]3O)cc(O)c(O)c12 ?
OUT: 66.75 (±1.11) %

IN: Quick one: relative enzymatic activity of DNMT3B of Cc1cc(NC(=O)CN2CCN(c3cc(C(N)=O)c4ccccc4n3)CC2)no1 ?
OUT: 96.39 (±0.28) %

IN: Quick one: relative enzymatic activity of DNMT3B of Cc1cc(NCc2nnc(Cc3ccccc3)o2)ccc1C(N)=O ?
OUT: 97.42 (±2.49) %

IN: Quick one: relative enzymatic activity of DNMT3B of COc1ccc(Cl)cc1C(=O)NCCc1ccc(S(=O)(=O)NC(=O)NC2CCCCC2)cc1 [Glyburide, reference compound] ?
OUT: 95.97 (±4.76) %

IN: Quick one: relative enzymatic activity of DNMT3B of Cc1ccc(Cl)cc1NS(=O)(=O)c1ccc(NS(=O)(=O)c2ccc3ccccc3c2)cc1 ?
OUT: 78.20 (±0.30) %
